Tested on: IL-2 secretion of Jurkat cells (PMA/Ionomycin inducing)
ASSAY OVERVIEW: ELISA method to detect IL-2 secretion induced by PMA/Ionomycin
Type: cell-based
APPLIED CONDITIONS: Homo sapiens, 20 h
ASSAY ENDPOINT: IC50 (nM)

Some entries whose results are on file:
SMILES RECORD | IC50, nM
O=C(Nc1cnc(-n2nccn2)c(C(F)(F)F)c1)c1cnc(-c2ccc(F)cc2Cl)cc1Cl | 598
O=C(Nc1cnc(-n2nccn2)c(C(F)(F)F)c1)c1ccc(-c2ccc(F)cc2Cl)cc1Cl | 191
Nc1ccccc1-c1cc(F)c(C(=O)Nc2cnc(-n3nccn3)c(C(F)(F)F)c2)cc1Cl | 186
Nc1cc(F)ccc1-c1cc(F)c(C(=O)Nc2cnc(-n3nccn3)c(C(F)(F)F)c2)cc1Cl | 58
Cc1nc(-c2ccc(F)cc2Cl)ncc1C(=O)Nc1cnc(-n2nccn2)c(C(F)(F)F)c1 | 285
Nc1cc(F)ccc1-c1cc(F)c(C(=O)Nc2cnc(-n3nccn3)c(Cl)c2)cc1Cl | 57
COc1cc(F)ccc1-c1ccc(C(=O)Nc2cnc(-n3nccn3)c(Cl)c2)c(Cl)c1 | 294
C#Cc1cnccc1-c1cc(Cl)c(C(=O)Nc2cnc(C(=O)NC)c(Cl)c2)cc1F | 77

[1] Nc1cncc(C2CC2)c1-c1cc(Cl)c(C(=O)Nc2cnc(-n3nccn3)c(Cl)c2)cc1F
[2] O=C(Nc1cnc(-n2nccn2)c(C(F)(F)F)c1)c1ccc(-c2ccc(F)cc2Cl)cc1C1CC1
Input: // task: argmin of IC50 over [ 1 , 2 ] Respond using the label that marks the chosen record.
Output: 1
(1: 76 nM, 2: 632 nM)

[P] C#Cc1cncc(N)c1-c1cc(Cl)c(C(=O)Nc2cnc(-n3nccn3)c(Cl)c2)cc1F
[Q] O=C(Nc1cnc(-n2nccn2)c(C(F)(F)F)c1)c1cc(F)c(-c2ccccc2Cl)cc1Cl
Input: // pick min by IC50: P , Q Bench note: the answer is the label of the chosen record.
Output: P

====

Tested on: IL-2 secretion of Jurkat cells (PMA/Ionomycin inducing)
ASSAY OVERVIEW: ELISA method to detect IL-2 secretion induced by PMA/Ionomycin
Format: cell-based
APPLIED CONDITIONS: Homo sapiens, 20 h
ASSAY ENDPOINT: IC50 (nM)

SMILES RECORD | IC50 [nM]
Nc1ccccc1-c1cc(Cl)c(C(=O)Nc2cnc(-n3nccn3)c(C(F)(F)F)c2)cc1F | 195

[I] COc1cc(F)ccc1-c1cc(Cl)c(C(=O)Nc2cnc(-n3nccn3)c(C(F)(F)F)c2)cc1F
[II] O=C(Nc1cnc(-n2nccn2)c(Cl)c1)c1ccc(-c2ccccc2Cl)cc1Cl
Input: Between I and II , which one shows the smaller IC50 number? In your reply, give the label of the chosen option.
Output: I

====

Tested on: IL-2 secretion of Jurkat cells (PMA/Ionomycin inducing)
ASSAY OVERVIEW: ELISA method to detect IL-2 secretion induced by PMA/Ionomycin
Assay type: cell-based
APPLIED CONDITIONS: Homo sapiens, 20 h
pIC50: −log10 of the molar value.
ASSAY ENDPOINT: pIC50

SMILES RECORD | TEST TARGET | pIC50
C#Cc1cnccc1-c1cc(Cl)c(C(=O)Nc2cnc(C(=O)NCC#N)c(Cl)c2)cc1F | IL-2 secretion of Jurkat cells (PMA/Ionomycin inducing) | 7.11
Nc1cc(F)ccc1-c1cc(Cl)c(C(=O)Nc2cnc(-n3nccn3)c(C(F)(F)F)c2)cc1F | IL-2 secretion of Jurkat cells (PMA/Ionomycin inducing) | 6.92
O=C(Nc1cnc(-n2nccn2)c(Cl)c1)c1cc(F)c(-c2ccc(F)cc2CO)cc1Cl | IL-2 secretion of Jurkat cells (PMA/Ionomycin inducing) | 7.11

====

Tested on: IL-2 secretion of Jurkat cells (PMA/Ionomycin inducing)
ASSAY OVERVIEW: ELISA method to detect IL-2 secretion induced by PMA/Ionomycin
Format: cell-based
APPLIED CONDITIONS: Homo sapiens, 20 h
pIC50: −log10 of the molar value.
ASSAY ENDPOINT: pIC50

COMPOUND | pIC50
Nc1cnccc1-c1cc(F)c(C(=O)Nc2cnc(-n3nccn3)c(Cl)c2)cc1Cl [Example A124] | 6.60

[1] CC(=O)c1cncc(N)c1-c1cc(Cl)c(C(=O)Nc2cnc(-n3nccn3)c(Cl)c2)cc1F [Example A529]
[2] C#Cc1cncc(N)c1-c1cc(Cl)c(C(=O)Nc2cnc(C(=O)NCC(F)(F)F)c(Cl)c2)cc1F [Example A470]
[3] Cc1cc(-c2ccc(F)cc2Br)c(F)cc1C(=O)Nc1cnc(-n2nccn2)c(Cl)c1 [Example A114]
Input: Order the items by recorded pIC50; the first position goes to the largest value. Please write the labels in the order that was asked for.
Output: 3, 2, 1
(3: 7.47, 2: 6.95, 1: 6.68)
